Examples of compounds with documented biofilm OD600 follow.
# Test system: Candida albicans SNY425 biofilm
# Test Details: biofilm OD600 with compound plus antifungal (OD600 (absorbance)); higher = more biofilm remaining
# Protocol Conditions: assay detail: disruption of 24-h mature biofilm (compound + antifungal for a second 24 h)

Compound | biofilm OD600
NCCCC[C@H](N[C@@H](CCc1ccccc1)C(=O)O)C(=O)N1CCC[C@H]1C(=O)O [Lisinopril] + OC(Cn1cncn1)(Cn1cncn1)c1ccc(F)cc1F [fluconazole] (first compound 12.5 µM) | 0.26
C[C@H](CS)C(=O)N1CCC[C@H]1C(=O)O [Captopril] + CC[C@H](C)C[C@H](C)CCCCCCCCC(=O)N[C@H]1C[C@@H](O)[C@@H](NCCN)NC(=O)[C@@H]2[C@@H](O)CCN2C(=O)[C@H]([C@H](O)CCN)NC(=O)[C@H]([C@H](O)[C@@H](O)c2ccc(O)cc2)NC(=O)[C@@H]2C[C@@H](O)CN2C(=O)[C@H]([C@@H](C)O)NC1=O [caspofungin] (first compound 12.5 µM) | 0.286
O=C(O[C@@H]1Cc2c(O)cc(O)cc2O[C@@H]1c1cc(O)c(O)c(O)c1)c1cc(O)c(O)c(O)c1 [Epigallocatechin gallate] + CC[C@H](C)C[C@H](C)CCCCCCCCC(=O)N[C@H]1C[C@@H](O)[C@@H](NCCN)NC(=O)[C@@H]2[C@@H](O)CCN2C(=O)[C@H]([C@H](O)CCN)NC(=O)[C@H]([C@H](O)[C@@H](O)c2ccc(O)cc2)NC(=O)[C@@H]2C[C@@H](O)CN2C(=O)[C@H]([C@@H](C)O)NC1=O [caspofungin] (first compound 12.5 µM) | 0.264
CC(C)C[C@@H](C=O)NC(=O)[C@H](CC(C)C)NC(=O)[C@H](CC(C)C)NC(=O)OCc1ccccc1 + CC[C@H](C)C[C@H](C)CCCCCCCCC(=O)N[C@H]1C[C@@H](O)[C@@H](NCCN)NC(=O)[C@@H]2[C@@H](O)CCN2C(=O)[C@H]([C@H](O)CCN)NC(=O)[C@H]([C@H](O)[C@@H](O)c2ccc(O)cc2)NC(=O)[C@@H]2C[C@@H](O)CN2C(=O)[C@H]([C@@H](C)O)NC1=O [caspofungin] (first compound 12.5 µM) | 0.281
C[C@]1(Cn2ccnn2)[C@H](C(=O)O)N2C(=O)C[C@H]2S1(=O)=O [Tazobactam] + C[C@@H]1[C@H](O)[C@@H](C)/C=C/C=C/C=C/C=C/C=C/C=C/C=C/[C@H](O[C@@H]2O[C@H](C)[C@@H](O)[C@H](N)[C@@H]2O)C[C@@H]2O[C@](O)(C[C@@H](O)C[C@@H](O)[C@H](O)CC[C@@H](O)C[C@@H](O)CC(=O)O[C@H]1C)C[C@H](O)[C@H]2C(=O)O [amphotericin B] (first compound 12.5 µM) | 0.308

###

# Tested on: Candida albicans SNY425 biofilm
# Test Details: biofilm OD600 with compound plus antifungal (OD600 (absorbance)); higher = more biofilm remaining
# Protocol Conditions: assay detail: sustained inhibition (compound + antifungal during 90-min adherence and 24-h growth)
Examples of compounds with documented biofilm OD600 follow.

Compound | biofilm OD600
Cc1c(O)cccc1C(=O)N[C@@H](CSc1ccccc1)[C@H](O)CN1C[C@H]2CCCC[C@H]2C[C@H]1C(=O)NC(C)(C)C [nelfinavir] + OC(Cn1cncn1)(Cn1cncn1)c1ccc(F)cc1F [fluconazole] (first compound 12.5 µM) | 0.121
CC(C)(C)NC(=O)[C@@H]1CN(Cc2cccnc2)CCN1C[C@@H](O)C[C@@H](Cc1ccccc1)C(=O)N[C@H]1c2ccccc2C[C@H]1O [indinavir] + CC[C@H](C)C[C@H](C)CCCCCCCCC(=O)N[C@H]1C[C@@H](O)[C@@H](NCCN)NC(=O)[C@@H]2[C@@H](O)CCN2C(=O)[C@H]([C@H](O)CCN)NC(=O)[C@H]([C@H](O)[C@@H](O)c2ccc(O)cc2)NC(=O)[C@@H]2C[C@@H](O)CN2C(=O)[C@H]([C@@H](C)O)NC1=O [caspofungin] (first compound 12.5 µM) | 0.207
NC(N)=NCCC[C@H](NC(=O)[C@@H]1CCCN1C(=O)[C@H](N)Cc1ccccc1)C(=O)CCl + CC[C@H](C)C[C@H](C)CCCCCCCCC(=O)N[C@H]1C[C@@H](O)[C@@H](NCCN)NC(=O)[C@@H]2[C@@H](O)CCN2C(=O)[C@H]([C@H](O)CCN)NC(=O)[C@H]([C@H](O)[C@@H](O)c2ccc(O)cc2)NC(=O)[C@@H]2C[C@@H](O)CN2C(=O)[C@H]([C@@H](C)O)NC1=O [caspofungin] (first compound 12.5 µM) | 0.189
CC(C)C[C@H](NC(=O)N[C@H](C(=O)N[C@@H](CCC(N)=O)C(=O)N[C@@H](C)C=O)[C@@H]1CCNC(=N)N1)C(=O)O [Elastatinal] + C[C@@H]1[C@H](O)[C@@H](C)/C=C/C=C/C=C/C=C/C=C/C=C/C=C/[C@H](O[C@@H]2O[C@H](C)[C@@H](O)[C@H](N)[C@@H]2O)C[C@@H]2O[C@](O)(C[C@@H](O)C[C@@H](O)[C@H](O)CC[C@@H](O)C[C@@H](O)CC(=O)O[C@H]1C)C[C@H](O)[C@H]2C(=O)O [amphotericin B] (first compound 12.5 µM) | 0.21
CC1CNc2c(cccc2S(=O)(=O)N[C@@H](CCCNC(=N)N)C(=O)N2CC[C@@H](C)C[C@@H]2C(=O)O)C1 (stereo not given in full) [Argatroban] + OC(Cn1cncn1)(Cn1cncn1)c1ccc(F)cc1F [fluconazole] (first compound 12.5 µM) | 0.113
NC(N)=NCCC[C@H](NC(=O)[C@@H]1CCCN1C(=O)[C@H](N)Cc1ccccc1)C(=O)CCl + C[C@@H]1[C@H](O)[C@@H](C)/C=C/C=C/C=C/C=C/C=C/C=C/C=C/[C@H](O[C@@H]2O[C@H](C)[C@@H](O)[C@H](N)[C@@H]2O)C[C@@H]2O[C@](O)(C[C@@H](O)C[C@@H](O)[C@H](O)CC[C@@H](O)C[C@@H](O)CC(=O)O[C@H]1C)C[C@H](O)[C@H]2C(=O)O [amphotericin B] (first compound 12.5 µM) | 0.213
CNC(=O)[C@H](Cc1c[nH]c2ccccc12)NC(=O)[C@@H](CC(=O)NO)CC(C)C + CC[C@H](C)C[C@H](C)CCCCCCCCC(=O)N[C@H]1C[C@@H](O)[C@@H](NCCN)NC(=O)[C@@H]2[C@@H](O)CCN2C(=O)[C@H]([C@H](O)CCN)NC(=O)[C@H]([C@H](O)[C@@H](O)c2ccc(O)cc2)NC(=O)[C@@H]2C[C@@H](O)CN2C(=O)[C@H]([C@@H](C)O)NC1=O [caspofungin] (first compound 12.5 µM) | 0.187
CCOC(=O)[C@H](CCc1ccccc1)N[C@@H](C)C(=O)N1CCC[C@H]1C(=O)O [Enalapril] + C[C@@H]1[C@H](O)[C@@H](C)/C=C/C=C/C=C/C=C/C=C/C=C/C=C/[C@H](O[C@@H]2O[C@H](C)[C@@H](O)[C@H](N)[C@@H]2O)C[C@@H]2O[C@](O)(C[C@@H](O)C[C@@H](O)[C@H](O)CC[C@@H](O)C[C@@H](O)CC(=O)O[C@H]1C)C[C@H](O)[C@H]2C(=O)O [amphotericin B] (first compound 12.5 µM) | 0.197
Nc1ccc(CC(CC(=O)O)C(=O)O)cc1 [4-Amino-D, L-benzylsuccinic acid] + C[C@@H]1[C@H](O)[C@@H](C)/C=C/C=C/C=C/C=C/C=C/C=C/C=C/[C@H](O[C@@H]2O[C@H](C)[C@@H](O)[C@H](N)[C@@H]2O)C[C@@H]2O[C@](O)(C[C@@H](O)C[C@@H](O)[C@H](O)CC[C@@H](O)C[C@@H](O)CC(=O)O[C@H]1C)C[C@H](O)[C@H]2C(=O)O [amphotericin B] (first compound 12.5 µM) | 0.185
Cc1c(O)cccc1C(=O)N[C@@H](CSc1ccccc1)[C@H](O)CN1C[C@H]2CCCC[C@H]2C[C@H]1C(=O)NC(C)(C)C [nelfinavir] + C[C@@H]1[C@H](O)[C@@H](C)/C=C/C=C/C=C/C=C/C=C/C=C/C=C/[C@H](O[C@@H]2O[C@H](C)[C@@H](O)[C@H](N)[C@@H]2O)C[C@@H]2O[C@](O)(C[C@@H](O)C[C@@H](O)[C@H](O)CC[C@@H](O)C[C@@H](O)CC(=O)O[C@H]1C)C[C@H](O)[C@H]2C(=O)O [amphotericin B] (first compound 12.5 µM) | 0.112
